System: Pseudomonas aeruginosa W9
Test: MIC on clinically isolated bacteria
Format: cell-based
Conditions: read-out: MIC
recorded-endpoint: MIC (mg/L)

1) CC1(C)[C@H](NC(=O)/C(=N\O[C@@H](COc2ccc3c(c2)CN(C(=N)NCCN)C3)C(=O)O)c2csc(N)n2)C(=O)N1OS(=O)(=O)O [Compound 44]
4
2) CC1(C)[C@H](NC(=O)/C(=N\O[C@@H](COc2ccc3c(c2)CN(C(=N)N[C@@H]2CCCNC2)C3)C(=O)O)c2csc(N)n2)C(=O)N1OS(=O)(=O)O [Compound 41]
4
3) C[C@@H](O)[C@H]1C(=O)N2C(C(=O)O)=C(S[C@@H]3CN[C@H](C(=O)N(C)C)C3)[C@H](C)[C@H]12 [Meropenem, reference compound]
16
4) CC1(C)[C@H](NC(=O)/C(=N\O[C@@H](COc2ccc3c(c2)CN(/C(=N\[C@@H]2CCCNC2)N[C@@H]2CCCNC2)C3)C(=O)O)c2csc(N)n2)C(=O)N1OS(=O)(=O)O [Compound 46]
1
5) CC1(C)[C@H](NC(=O)/C(=N\O[C@@H](COc2ccc3c(c2)CN(C(=N)NCCCCN)C3)C(=O)O)c2csc(N)n2)C(=O)N1OS(=O)(=O)O [Compound 36]
0.5

###

Test system: Acinetobacter baumannii ATCC-BAA-1795
Test: MIC on Acinetobacter baumannii strains
Type: cell-based
Conditions: ATCCBAA1795
recorded-endpoint: MIC

1. CC1(C)[C@H](NC(=O)/C(=N\OCCOc2ccc3c(c2)CCN(C(=N)NCCCN)C3)c2csc(N)n2)C(=O)N1OS(=O)(=O)O
4 µg/mL
2. CC1(C)[C@H](NC(=O)/C(=N\OCCOc2ccc3c(c2)CC[N+](C)(CCCN)C3)c2csc(N)n2)C(=O)N1OS(=O)(=O)[O-] (stereo partly drawn)
16 µg/mL
3. CC1(C)[C@H](NC(=O)/C(=N\OCCOc2ccc3c(c2)CCN(CCCN)C3)c2csc(N)n2)C(=O)N1OS(=O)(=O)O
8 µg/mL

###

Test: Pharmacokinetic experiment of the compounds in mice
Format: in vivo
Settings: mouse, plasma, 2 mg/kg; Male CD-1 mice, fasting, second section of Table 7 (intravenous injection), 2 mpk; read-out: Maximum concentration Cmax
Collected Cmax values appear next to each entry.
recorded-endpoint: Cmax (µM)

1) CC1(C)[C@H](NC(=O)/C(=N\OCCOc2ccc3c(c2)CN(C(=N)N(CCCN)CCCN)C3)c2csc(N)n2)C(=O)N1OS(=O)(=O)O
10.6
2) CC1(C)[C@H](NC(=O)/C(=N\OCCOc2ccc3c(c2)CN(C(=N)NCCCN)C3)c2csc(N)n2)C(=O)N1OS(=O)(=O)O
5.76
3) CC1(C)[C@H](NC(=O)/C(=N\O[C@@H](COc2ccc3c(c2)CN(C(=N)N(CCCN)CCCN)C3)C(=O)O)c2csc(N)n2)C(=O)N1OS(=O)(=O)O
8
4) CC1(C)[C@H](NC(=O)/C(=N\O[C@@H](COc2ccc3c(c2)CN(C(=N)NCCCN)C3)C(=O)O)c2csc(N)n2)C(=O)N1OS(=O)(=O)O
5.55

###

System: Acinetobacter baumannii C333
Assay: MIC on clinically isolated bacteria
Format: cell-based
Conditions: Acinetobacter baumannii C333; read-out: Minimum Inhibitory Concentration (MIC)
recorded-endpoint: MIC (µg/mL)

1) C[C@@H](O)[C@H]1C(=O)N2C(C(=O)O)=C(S[C@@H]3CN[C@H](C(=O)N(C)C)C3)[C@H](C)[C@H]12 [Meropenem, reference compound]
64
2) C[C@H]1[C@H](NC(=O)/C(=N\OC(C)(C)C(=O)O)c2csc(N)n2)C(=O)N1S(=O)(=O)O [Aztreonam, reference compound]
64
3) CC1(C)[C@H](NC(=O)/C(=N\O[C@@H](COc2ccc3c(c2)CN(C(=N)NCCCCN)C3)C(=O)O)c2csc(N)n2)C(=O)N1OS(=O)(=O)O [Compound 36]
2
4) CC1(C)[C@H](NC(=O)/C(=N\O[C@@H](COc2ccc3c(c2)CN(C(=N)N[C@@H]2CCCNC2)C3)C(=O)O)c2csc(N)n2)C(=O)N1OS(=O)(=O)O [Compound 41]
2
5) CC1(C)[C@H](NC(=O)/C(=N\O[C@@H](COc2ccc3c(c2)CN(C(=N)NCCN)C3)C(=O)O)c2csc(N)n2)C(=O)N1OS(=O)(=O)O [Compound 44]
2
6) CC1(C)[C@H](NC(=O)/C(=N\O[C@@H](COc2ccc3c(c2)CN(C(=N)NOCCN)C3)C(=O)O)c2csc(N)n2)C(=O)N1OS(=O)(=O)O [Compound 43]
8
7) CC1(C)[C@H](NC(=O)/C(=N\O[C@@H](COc2ccc3c(c2)CN(C(=N)N(CCN)CCN)C3)C(=O)O)c2csc(N)n2)C(=O)N1OS(=O)(=O)O [Compound 45]
16
8) CC1(C)[C@H](NC(=O)/C(=N\O[C@@H](COc2ccc3c(c2)CN(/C(=N\[C@@H]2CCCNC2)N[C@@H]2CCCNC2)C3)C(=O)O)c2csc(N)n2)C(=O)N1OS(=O)(=O)O [Compound 46]
4

Where these numbers come from: patent US11459323B2
